From: patent US10550125B2

Please go through the items and note down their solubility at 24 h.
Experiment: Thermodynamic equilibrium aqueous solubility assay
Format: physicochemical
Details: aqueous buffer, simulated gastric fluid, thermodynamic from solid; pH 1.0; read-out: Solubility pH 1.0
One number for each entry, in µg/mL.

{"chemSmiles": "CCNc1nc(Nc2cc(C#N)cc(N3CCN([C@@H](C)C(N)=O)CC3)c2Cl)nn2c(C#N)cnc12", "endpointUnit": "µg/mL", "observedResult": 22}

Please look at the items below and tell me solubility at 24 h for each one, in order.
1. CCNc1nc(N(C(=O)OCOC(=O)Cc2ccc(OP(=O)(O)O)cc2)c2cc(C#N)cc(N3CCN([C@@H](C)C(N)=O)CC3)c2Cl)nn2c(C#N)cnc12
2. CCNc1nc(N(C(=O)OCOC(=O)CC(C)(C)c2c(C)cc(C)cc2OP(=O)(O)O)c2cc(C#N)cc(N3CCN([C@@H](C)C(N)=O)CC3)c2Cl)nn2c(C#N)cnc12

Resp:
1: 242; 2: 253

* * *

Please go through the items and note down their pIC50.
Target: CK2A1 (Homo sapiens (Human), UniProt P68400)
Sequence (P68400 whole entry): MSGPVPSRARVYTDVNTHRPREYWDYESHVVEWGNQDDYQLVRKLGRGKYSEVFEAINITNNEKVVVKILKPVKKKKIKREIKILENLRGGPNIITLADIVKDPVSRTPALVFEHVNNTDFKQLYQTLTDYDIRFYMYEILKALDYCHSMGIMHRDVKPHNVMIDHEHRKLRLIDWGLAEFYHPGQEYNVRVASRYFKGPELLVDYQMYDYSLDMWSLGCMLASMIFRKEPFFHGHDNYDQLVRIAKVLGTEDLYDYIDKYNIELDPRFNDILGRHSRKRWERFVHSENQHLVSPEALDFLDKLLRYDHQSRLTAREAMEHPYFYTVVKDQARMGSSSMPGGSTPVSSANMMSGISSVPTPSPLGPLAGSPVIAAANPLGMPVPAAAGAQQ
Experiment: CK2 kinase assay (CK2A1)
Details: recombinant CK2A1
pIC50: −log10 of the molar value.

Study these solved cases before continuing.
{"compound": "CCNc1nc(N(C(=O)OCOC(=O)CC(C)(C)COP(=O)(O)O)c2cc(C#N)cc(N3CCN([C@@H](C)C(N)=O)CC3)c2Cl)nn2c(C#N)cnc12 [Example 4]", "reportedProperty": "pIC50", "observedResult": "7.00 to 8.00"}
{"compound": "CCNc1nc(N(C(=O)OCOC(=O)Cc2ccc(OP(=O)(O)O)cc2)c2cc(C#N)cc(N3CCN([C@@H](C)C(N)=O)CC3)c2Cl)nn2c(C#N)cnc12 [Example 2]", "reportedProperty": "pIC50", "observedResult": "6.00 to 7.00"}
{"compound": "CCNc1nc(N(C(=O)OCOC(=O)/C=C/C(=O)O)c2cc(C#N)cc(N3CCN([C@@H](C)C(N)=O)CC3)c2Cl)nn2c(C#N)cnc12 [Example 3]", "reportedProperty": "pIC50", "observedResult": "6.00 to 7.00"}

Please look at the items below and tell me pIC50 for each one, in order.
1. CCNc1nc(Nc2cc(C#N)cc(N3CCN([C@@H](C)C(N)=O)CC3)c2Cl)nn2c(C#N)cnc12 [Example 1]
2. CCNc1nc(N(C(=O)OCOC(=O)CC(C)(C)c2c(C)cc(C)cc2OP(=O)(O)O)c2cc(C#N)cc(N3CCN([C@@H](C)C(N)=O)CC3)c2Cl)nn2c(C#N)cnc12 [Example 5]

Resp:
["> 8.00", "6.00 to 7.00"]

* * *

Target: CK2A2 (Homo sapiens (Human))
Sequence (P19784 whole entry): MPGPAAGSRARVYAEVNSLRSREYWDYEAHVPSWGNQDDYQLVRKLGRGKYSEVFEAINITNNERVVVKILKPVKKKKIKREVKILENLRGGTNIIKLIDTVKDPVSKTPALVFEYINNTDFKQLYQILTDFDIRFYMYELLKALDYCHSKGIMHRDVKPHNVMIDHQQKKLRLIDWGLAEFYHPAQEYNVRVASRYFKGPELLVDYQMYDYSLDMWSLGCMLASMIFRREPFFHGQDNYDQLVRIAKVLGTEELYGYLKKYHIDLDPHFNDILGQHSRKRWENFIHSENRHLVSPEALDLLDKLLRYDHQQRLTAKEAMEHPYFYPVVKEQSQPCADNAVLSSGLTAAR
Test: CK2 kinase assay (CK2A2)
Conditions: recombinant CK2A2
pIC50: −log10 of the molar value.
Please go through the items and note down their pIC50.

Study these solved cases before continuing.
{"compound": "CCNc1nc(N(C(=O)OCOC(=O)/C=C/C(=O)O)c2cc(C#N)cc(N3CCN([C@@H](C)C(N)=O)CC3)c2Cl)nn2c(C#N)cnc12 [Example 3]", "pIC50": "7.00 to 8.00"}
{"compound": "CCNc1nc(N(C(=O)OCOC(=O)CC(C)(C)c2c(C)cc(C)cc2OP(=O)(O)O)c2cc(C#N)cc(N3CCN([C@@H](C)C(N)=O)CC3)c2Cl)nn2c(C#N)cnc12 [Example 5]", "pIC50": "7.00 to 8.00"}
{"compound": "CCNc1nc(Nc2cc(C#N)cc(N3CCN([C@@H](C)C(N)=O)CC3)c2Cl)nn2c(C#N)cnc12 [Example 1]", "pIC50": "> 8.00"}
{"compound": "CCNc1nc(N(C(=O)OCOC(=O)Cc2ccc(OP(=O)(O)O)cc2)c2cc(C#N)cc(N3CCN([C@@H](C)C(N)=O)CC3)c2Cl)nn2c(C#N)cnc12 [Example 2]", "pIC50": "7.00 to 8.00"}

Note: attention shifts to another entry.
Req: Fill in: pIC50 of CCNc1nc(N(C(=O)OCOC(=O)CC(C)(C)COP(=O)(O)O)c2cc(C#N)cc(N3CCN([C@@H](C)C(N)=O)CC3)c2Cl)nn2c(C#N)cnc12 [Example 4] is ___
Resp: > 8.00

* * *

Experiment: Thermodynamic equilibrium aqueous solubility assay
Format: physicochemical
Conditions: 50 mM sodium acetate buffer, aqueous buffer, thermodynamic from solid; pH 4.0, 50 mM sodium acetate; read-out: Solubility pH 4.0
reportedProperty: solubility at 24 h (µg/mL)
Give bare numbers, in µg/mL.

{"chemSmiles": "CCNc1nc(N(C(=O)OCOC(=O)Cc2ccc(OP(=O)(O)O)cc2)c2cc(C#N)cc(N3CCN([C@@H](C)C(N)=O)CC3)c2Cl)nn2c(C#N)cnc12", "endpointUnit": "µg/mL", "observedResult": 124}

Note: attention shifts to another entry.
Req: Fill in: solubility at 24 h of CCNc1nc(N(C(=O)OCOC(=O)CC(C)(C)c2c(C)cc(C)cc2OP(=O)(O)O)c2cc(C#N)cc(N3CCN([C@@H](C)C(N)=O)CC3)c2Cl)nn2c(C#N)cnc12 is ___
Resp: 160
